From: paper PMC11480844

B1: H2-Kb / Ed16-30 (parent complex)
chain 1: GEQVEQRPPHLSVREGDSAVIICTYTDPNSYYFFWYKQEPGAGLQLLMKVFSSTEINEGQGFTVLLNKKDKQLSLNLTAAHPGDSAVYFCAVSEPSSGQKLVFGQGTILKVYL
chain 2: EAAVTQSPRNKVAVTGGKVTLSCNQTNNHNNMYWYRQDTGHGLRLIHYSYGAGSTEKGDIPDGYKASRPSQENFSLILELATPSQTSVYFCAGRDTGQLYFGEGSKLTVL
chain 3: not shown
chain 4: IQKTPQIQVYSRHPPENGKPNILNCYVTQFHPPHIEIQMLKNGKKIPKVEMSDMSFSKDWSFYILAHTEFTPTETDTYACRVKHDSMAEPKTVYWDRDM
chain 5: SIINFEKL

Variants of: B1
Test Summary: % of reporter cells activated (NFAT-GFP), raw; also: test concentration or dose not given here
Decide using ratio to parent alone. Strictly below 1: 1.0. Equal to or above 1: 0.0.

INSERT INTO measurements (sequence_change, assigned_label) VALUES
  ('chain 5 K7R', 0.0),
  ('chain 5 L8F', 0.0),
  ('chain 5 I3D', 1.0),
  ('chain 5 I3H', 1.0),
  ('chain 5 L8A', 0.0),
  ('chain 5 N4H', 1.0),
  ('chain 5 S1K', 1.0),
  ('chain 5 K7V', 1.0),
  ('chain 5 F5N', 1.0);

A record lists chain 5 K7P . Is its ratio to parent below 1?
1.0
